Target: Neurotensin receptor type 2 (Homo sapiens) (UniProt O95665)
Sequence (O95665 whole entry, looked up): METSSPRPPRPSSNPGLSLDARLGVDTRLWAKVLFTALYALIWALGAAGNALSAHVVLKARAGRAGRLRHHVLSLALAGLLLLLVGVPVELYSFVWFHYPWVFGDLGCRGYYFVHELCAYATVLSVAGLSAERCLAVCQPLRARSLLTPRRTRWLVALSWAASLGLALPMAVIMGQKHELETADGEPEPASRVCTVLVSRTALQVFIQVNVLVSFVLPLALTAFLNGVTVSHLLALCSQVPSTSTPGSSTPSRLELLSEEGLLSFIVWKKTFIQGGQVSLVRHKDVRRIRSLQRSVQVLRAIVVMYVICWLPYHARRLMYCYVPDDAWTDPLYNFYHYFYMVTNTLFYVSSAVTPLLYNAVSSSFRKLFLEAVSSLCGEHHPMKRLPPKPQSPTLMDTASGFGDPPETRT
Test: NTR2 agonist activity for selectivity, SAR follow-up, selectivity assay for NTR1 agonist project, imaging, image-based, set 2 (AID 602334)
Settings: NTR2-expressing cells, image-based receptor agonism assay
Calls of active or inactive are those of the source. No rule for the calls is given here.
Pick one and only one: active, inactive

> print(dat)
                                smiles.text     class
1  COc1cc2nc(C3CC3)nc(N3CCN(S(=O)(=O)c4ccccc4)CC3)c2cc1OC  inactive
2  COc1cc2c3nnc(-c4ccccc4)c-3cn(Cc3ccc(F)cc3)c2cc1OC  inactive
3  COc1cc2nc(C3CC3)nc(N3CCN(C(=O)c4ccccc4OC)CC3)c2cc1OC  inactive

Incoming: Hi, do you know how COc1cc2nc(C3CCC3)nc(N3CCN(c4ccccc4[N+](=O)[O-])CC3)c2cc1OC came out in this test?
Outgoing: inactive

Incoming: Next entry: COc1cc2c3nnc(-c4ccc(C)c(C)c4)c-3cn(Cc3ccc(F)cc3)c2cc1OC
Outgoing: inactive

====

Molecular target: Neurotensin receptor type 2 (Homo sapiens) (UniProt O95665)
Assay: NTR2 agonist activity for selectivity, SAR follow-up, selectivity assay for NTR1 agonist project, imaging, image-based, set 2 (AID 602334)
Conditions: NTR2-expressing cells, image-based receptor agonism assay
The source made the active and inactive calls. How the calls were made is not given here.
measured parameter: EC50

Reference set, count: 6
> print(dat)
                                smiles.text      value.observed
1  COc1cc2c3nnc(-c4ccc(F)cc4)c-3cn(Cc3ccc(Cl)cc3)c2cc1OC             15.8 µM
2  CC(C)C[C@H](NC(=O)c1cn(-c2ccnc3cc(Cl)ccc23)c(-c2c(Cl)cccc2Cl)n1)C(=O)O  > 80 µM (inactive)
3  COc1cc2nc(C3CC3)nc(N3CCN(c4ccccc4Cl)CC3)c2cc1OC  > 80 µM (inactive)
4  COc1cc2nc(C3CCC3)nc(N3CCN(c4ccccc4OC)CC3)c2cc1OC  > 80 µM (inactive)
5  COc1cc2c3nnc(-c4ccc(C)c(C)c4)c-3cn(Cc3ccccc3)c2cc1OC  > 80 µM (inactive)
6  Cc1ccc(-c2nnc3c4cc5c(cc4n(Cc4ccccc4)cc2-3)OCO5)cc1C             1.78 µM

Hi there! I need EC50 for each item below, if you can.
1. COc1cc2nc(C3CCC3)nc(N3CCN(c4ccccn4)CC3)c2cc1OC
2. COc1cc2nc(C3CCC3)nc(N3CCN(c4ccccc4Cl)CC3)c2cc1OC
3. COc1cc2nc(C3CC3)nc(N3CCNCC3)c2cc1OC
4. CCOc1ccc(-c2nnc3c4cc(OC)c(OC)cc4n(Cc4ccccc4)cc2-3)cc1
5. COc1cc2nc(C3CCC3)nc(N3CCN(c4c(C)cccc4C)CC3)c2cc1OC
6. COc1cccc(OC)c1-c1nc(C(=O)N[C@H](CC(C)C)C(=O)O)cn1-c1ccnc2cc(Cl)ccc12
7. COc1cc2nc(C(C)C)nc(N3CCN(c4ccccc4OC)CC3)c2cc1OC
8. CCCc1nc(N2CCN(c3ccccc3OC)CC2)c2cc(OC)c(OC)cc2n1

Outgoing:
> 80 µM (inactive)
> 80 µM (inactive)
> 80 µM (inactive)
> 80 µM (inactive)
> 80 µM (inactive)
> 80 µM (inactive)
> 80 µM (inactive)
> 80 µM (inactive)

====

Target: Neurotensin receptor type 2 (Homo sapiens) (UniProt O95665)
Assay: NTR2 agonist activity for selectivity, SAR follow-up, selectivity assay for NTR1 agonist project, imaging, image-based, set 2 (AID 602334)
Details: NTR2-expressing cells, image-based receptor agonism assay
Activity calls are given as the source filed them. The rule behind the calls is not given here.
Pick one and only one: active, inactive

Known results for compounds:
> print(dat)
                                smiles.text     class
1  COc1cc2c3nnc(-c4ccc(C)cc4)c-3cn(Cc3ccc(F)cc3)c2cc1OC    active
2  COc1cc2nc(C3CCC3)nc(N3CCN(c4ccccc4F)CC3)c2cc1OC  inactive
3  CCOc1ccccc1N1CCN(c2nc(C3CC3)nc3cc(OC)c(OC)cc23)CC1  inactive
4  COc1cc2c3nnc(-c4ccc(C)cc4)c-3cn(Cc3ccc(C)cc3)c2cc1OC    active

Incoming: Hi, do you know how COc1ccccc1-c1cc(C(=O)N[C@@H](CC(C)C)C(=O)O)nn1-c1ccnc2cc(Cl)ccc12 came out in this test?
Outgoing: inactive

Incoming: Next entry: COc1cc2nc(C3CC3)nc(N3CCN(Cc4ccc(C)cc4)CC3)c2cc1OC
Outgoing: inactive

Incoming: Next entry: C=Cc1nc(N2CCN(c3ccccc3OC)CC2)c2cc(OC)c(OC)cc2n1
Outgoing: inactive

Incoming: Next entry: COc1cc2nc(C3CC3)nc(N3CCN(c4ccccc4OC)CC3)c2cc1OC
Outgoing: inactive

Incoming: Next entry: COc1cc2nc(C3CCCC3)nc(N3CCN(c4ccccc4OC)CC3)c2cc1OC
Outgoing: inactive

====

Molecular target: Neurotensin receptor type 2 (Homo sapiens) (UniProt O95665)
Experiment: NTR2 agonist activity for selectivity, SAR follow-up, selectivity assay for NTR1 agonist project, imaging, image-based, set 2 (AID 602334)
Conditions: NTR2-expressing cells, image-based receptor agonism assay
Calls of active or inactive are those of the source. The rule behind the calls is not given here.
Pick one and only one: 1.0 = active, 0.0 = inactive

Known results for compounds:
> print(dat)
                                smiles.text  class
1  COc1cccc(OC)c1-c1nc(C(=O)N[C@@H](CC(C)C)C(=O)O)cn1-c1ccnc2cc(Cl)ccc12    0.0
2  CCOc1ccc(-c2nnc3c4cc(OC)c(OC)cc4n(Cc4ccc(F)cc4)cc2-3)cc1    0.0
3  Cc1ccc(Cn2cc3c(-c4ccc(F)cc4)nnc-3c3cc4c(cc32)OCO4)cc1    0.0

Incoming: Hi, do you know how COc1cc2nc(CC(C)C)nc(N3CCN(c4ccccc4OC)CC3)c2cc1OC came out in this test?
Outgoing: 0.0

Incoming: Next entry: Cc1ccc(-c2nnc3c4cc5c(cc4n(Cc4ccc(F)cc4)cc2-3)OCO5)cc1
Outgoing: 0.0

====

Biological target: Neurotensin receptor type 2 (Homo sapiens) (UniProt O95665)
Assay: NTR2 agonist activity for selectivity, SAR follow-up, selectivity assay for NTR1 agonist project, imaging, image-based, set 2 (AID 602334)
Conditions: NTR2-expressing cells, image-based receptor agonism assay
Calls of active or inactive are those of the source. No rule for the calls is given here.
Pick one and only one: active, inactive

Known results for molecules:
> print(dat)
                                smiles.text     class
1  CCc1nc(N2CCN(c3ccccc3OC)CC2)c2cc(OC)c(OC)cc2n1  inactive
2  COc1ccc2nc(C3CC3)nc(N3CCN(c4ccccc4OC)CC3)c2c1  inactive
3  Fc1ccc(-c2nnc3c4cc5c(cc4n(Cc4ccccc4)cc2-3)OCO5)cc1  inactive
4  COc1ccc2c(c1)c1nnc(-c3ccc(F)cc3)c-1cn2Cc1ccccc1    active
5  COc1cc2c3nnc(-c4ccc(Cl)cc4)c-3cn(Cc3ccc(C)cc3)c2cc1OC  inactive

From here, focus on the item given below.
Incoming: Hi, do you know how COc1cc2c3nnc(-c4ccc(F)cc4)c-3cn(Cc3ccncc3)c2cc1OC came out in this test?
Outgoing: inactive

====

Target: Neurotensin receptor type 2 (Homo sapiens) (UniProt O95665)
Experiment: NTR2 agonist activity for selectivity, SAR follow-up, selectivity assay for NTR1 agonist project, imaging, image-based, set 2 (AID 602334)
Details: NTR2-expressing cells, image-based receptor agonism assay
The source made the active and inactive calls. No rule for the calls is given here.
measured parameter: EC50

Reference set, count: 8
> print(dat)
                                smiles.text  measured.parameter      value.observed
1  COc1cc2nc(C3CC3)nc(N3CCN(C(=O)c4ccccc4)CC3)c2cc1OC                EC50  > 80 µM (inactive)
2  COc1cccc(OC)c1-c1cc(C(=O)N[C@@H](CC(C)C)C(=O)O)nn1-c1ccnc2cc(Cl)ccc12                EC50  > 80 µM (inactive)
3  COc1cc2c3nnc(-c4ccc(F)cc4)c-3cn(Cc3ccccc3F)c2cc1OC                EC50             3.61 µM
4  COc1ccc2c(c1)c1nnc(-c3ccc(F)cc3)c-1cn2Cc1ccc(F)cc1                EC50            inactive
5  COc1cc2nc(Cc3ccccc3)nc(N3CCN(c4ccccc4OC)CC3)c2cc1OC                EC50  > 80 µM (inactive)
6  COc1cc2nc(CCN(C)C)nc(N3CCN(c4ccccc4OC)CC3)c2cc1OC                EC50  > 80 µM (inactive)
7  COc1cc2c3nnc(-c4ccc(F)cc4)c-3cn(Cc3ccc(F)cc3)c2cc1OC                EC50            inactive
8  COc1cc2c3nnc(-c4ccc(F)cc4)c-3cn(Cc3ccc(C)cc3C)c2cc1OC                EC50               11 µM

Hi there! I need EC50 for each item below, if you can.
1. CCc1ccc(-c2nnc3c4cc(OC)c(OC)cc4n(Cc4ccc(F)cc4)cc2-3)cc1
2. COc1cccc(OC)c1-c1cc(C(=O)N[C@@H](CC(C)C)C(=O)OC(C)(C)C)nn1-c1ccnc2cc(Cl)ccc12
3. COc1cc2nc(CCN3CCN(c4ccccc4OC)CC3)nc(N3CCN(c4ccccc4OC)CC3)c2cc1OC
4. COc1ccc2c3nnc(-c4ccc(C)cc4)c-3cn(Cc3ccccc3)c2c1
5. COc1cc2nc(CC3CC3)nc(N3CCN(c4ccccc4OC)CC3)c2cc1OC

Outgoing:
["inactive", "> 80 µM (inactive)", "> 80 µM (inactive)", "inactive", "> 80 µM (inactive)"]

Hi there! I need EC50 for each item below, if you can.
1. COc1cc2nc(C3CCC3)nc(N3CCN(c4ccccc4)CC3)c2cc1OC
2. COc1ccc2nc(C3CCC3)nc(N3CCN(c4ccccc4OC)CC3)c2c1
3. COc1cccc(OC)c1-c1nc(C(=O)N[C@@H](CC(C)C)C(=O)O)cn1-c1ccnc2ccccc12
4. Cc1cccc(C)c1-c1nc(C(=O)N[C@@H](CC(C)C)C(=O)O)cn1-c1ccnc2cc(Cl)ccc12
5. COc1cc2nc(C3CCC3)nc(N3CCN(c4ccccc4C)CC3)c2cc1OC

Outgoing:
["> 80 µM (inactive)", "> 80 µM (inactive)", "> 80 µM (inactive)", "> 80 µM (inactive)", "> 80 µM (inactive)"]

Hi there! I need EC50 for each item below, if you can.
1. Fc1ccc(Cn2cc3c(-c4ccc(F)cc4)nnc-3c3cc4c(cc32)OCO4)cc1
2. COc1cc2c3nnc(-c4ccc(F)cc4)c-3cn(Cc3ccccc3C)c2cc1OC
3. Fc1ccc(Cn2cc3c(-c4ccc(Cl)cc4)nnc-3c3cc4c(cc32)OCO4)cc1
4. CCOc1ccc(-c2nnc3c4cc(OC)c(OC)cc4n(Cc4ccc(C)cc4)cc2-3)cc1
5. COc1ccccc1CN1CCN(c2nc(C3CC3)nc3cc(OC)c(OC)cc23)CC1
6. COc1cc2c3nnc(-c4ccc(Cl)cc4)c-3cn(Cc3ccccc3)c2cc1OC

Outgoing:
1. inactive
2. 6.91 µM
3. inactive
4. > 80 µM (inactive)
5. > 80 µM (inactive)
6. 8.47 µM

Hi there! I need EC50 for each item below, if you can.
1. Cc1ccc(Cn2cc3c(-c4ccc(C)c(C)c4)nnc-3c3cc4c(cc32)OCO4)cc1
2. COc1cc2c3nnc(-c4ccc(Cl)cc4)c-3cn(Cc3ccc(F)cc3)c2cc1OC
3. COc1ccc(Cn2cc3c(-c4ccc(F)cc4)nnc-3c3cc(OC)c(OC)cc32)cc1
4. COc1cc2nc(C3CC3)nc(N3CCN(C(=O)OC(C)(C)C)CC3)c2cc1OC
5. COc1cc2c3nnc(-c4ccccc4)c-3cn(Cc3ccccc3)c2cc1OC
6. COc1cccc(OC)c1-c1nc(C(=O)N[C@@H](CC(C)C)C(=O)O)cn1-c1cccc2ccccc12

Outgoing:
["inactive", "8.36 µM", "14.7 µM", "> 80 µM (inactive)", "inactive", "> 80 µM (inactive)"]
